- runDescription: pH solubility screen in Citric Acid / Dibasic Sodium Phosphate buffers
- Format: physicochemical
- conditionParameters: upper pH of range
reportedEndpoint: pH Range where Protein is >80% detected as Soluble and A650 <1 OD: High
// print number alone

Known pH Range where Protein is >80% detected as Soluble and A650 <1 OD: High results, listed for orientation:
molecule="SEQID-00511: protein of the 168 nutritive polypeptide library (protein, Arthrospira platensis C1, protein of the 168 nutritive polypeptide library) MVLFGFGKKKSLPKPEEALPGRDRVMSVPDRHYINGNPLKPPFPEGMEQAVFGLGCFWGAERKFWQQQGVFSTAVGYAGGYTKNPTYEEVCSGMTGHTEVVLVVFDPKVISYTDLLKLFWESHNPTQGMRQGNDTGTQYRSAIYTYSDEQQRLALASRDRYQQALSAASYGEITTEIAPAQEFYYAEAYHQQYLGKNPNGYCGLGGTGVGCPAMTETSV" recordedresult=7.1
molecule="SEQID-00269: nutritive polypeptide (protein) DLKKKLDDDLGTLENLEELKKKLLKDLELLSQRLEELALAYDKLEKTKTRLQQELDDLLLDLDHQ" recordedresult=9.1

// field: pH Range where Protein is >80% detected as Soluble and A650 <1 OD: High; key: SEQID-00510: nutritive polypeptide naturally produced in Turkey, recombinantly expressed in E. coli (protein, Meleagris gallopavo, nutritive polypeptide naturally produced in Turkey, recombinantly expressed in E. coli) MVPIAEKMAEKQEEPSNTQNGEPDNAEEGEGKKKKKVKREDLPPFEIVTGERLPAIFFKFQFRNVEYSSGRNKTFLCYVVETQGKESTTSRGYLEDEHAASHAEIAFFNTILPKCESSLRYNITWYVSSSPCVTCADRISETLRKNKNLRLTIMVGRLFMWEEPEMQAALKKMKSAGCKLRIMKPQDFEYVWQNFVEQEEGEEAKAFVPWEDIQENFQYYEEKLAEILQ ; value = 7.1

Noted for SEQID-00622: protein of the 168 nutritive polypeptide library (protein, listed as Oryza sativa, subsp. japonica, protein of the 168 nutritive polypeptide library) MASEGAVSPAFAYTVVYVKDVAKSAAFYSAAFGYTVRRLDQSHKWAELESGTTTIAFTPLHQRETDALTGAVQLPDSAGERGPVEICFDYADVDAAYRRAVDSGAVPVSPPEQKSWGQKVGYVRDIDGIIVRMGSHVRA : its pH Range where Protein is >80% detected as Soluble and A650 <1 OD: High reads 7.1

According to the records, this molecule SEQID-00241: nutritive polypeptide (protein, listed as Bos taurus) SELKKDIDDLELTLAKVEKEKHATENKVKNLTEEMAGLDETIAKLTKEKKALQEAHQQTLDDLQAEEDKVNTLTKAKTKLEQQVDDLEGSLEQEKKLRMDLERAKRKLEGDLKLA displays pH Range where Protein is >80% detected as Soluble and A650 <1 OD: High of 9.1

The molecule listed as SEQID-00287: nutritive polypeptide (protein, listed as Saccharomyces cerevisiae, strain ATCC 204508 / S288c, nutritive polypeptide) LVLGALLDTSHKFRNLDKDLCEKCAKCISMIGVLDVTKHEFKRTTYSENEVYDLNDSVQTIKFLIWVINDILV shows pH Range where Protein is >80% detected as Soluble and A650 <1 OD: High equal to 9.1
